Target: CDK2 (Homo sapiens, UniProt P24941)
Assay: CDK inhibition assay, CDK2
Type: biochemical
Conditions: at 100 μM; read-out: % inhibition CDK2
The following molecules are listed with their measured inhibition at 100 µM values.
Reply with a number, then the unit it belongs to.

Here's what some known entries look like.
Smiles Input: CNc1cc(Cl)nc(N)n1
inhibition at 100 µM: 14%
//
Smiles Input: CC1(C)OC[C@@H](COc2nc(N)nc3[nH]cnc23)O1
inhibition at 100 µM: 38%
//
Smiles Input: Nc1nc(OCc2ccccc2)c2[nH]c(=O)[nH]c2n1
inhibition at 100 µM: 8%

Challenge: // lookup inhibition at 100 µM | system=CDK2 (Homo sapiens, UniProt P24941) | key= Nc1cc(OCc2ccccc2)nc(N)n1
Response given: 0%

Challenge: Same lookup for Nc1nc(N)c(N)c(OCc2ccccc2)n1 , please.
Response given: 6%

Challenge: Same lookup for Nc1nc(OCc2cccnc2)c2nc[nH]c2n1 , please.
Response given: 43%

###

The following molecules are listed with their measured pIC50 values.
Target: UniProt P11802
Test: CDK inhibition assay, CDK4
Format: biochemical
Conditions: CDK4; Table 1; read-out: IC50 CDK4
pIC50: −log10 of the molar value.

Molecule: Nc1nc(OCC23CC4CC(CC(C4)C2)C3)c2[nH]cnc2n1 [NU6014, 2-amino-6-adamantyl-methyloxypurine]
Measurement: < 4.00

Molecule: Nc1nc(OCC2CC=CCC2)c2nc[nH]c2n1 (stereo not drawn) [NU2073, O^6-(3'-Cyclohexenyl)methylguanine]
Measurement: 4.28

Molecule: Nc1nc(OCc2ccc3ccccc3c2)c2nc[nH]c2n1 [NU6018, 2-amino-6-(2-naphthyl)-methyloxypurine]
Measurement: < 4.00

Challenge: Name the recorded pIC50 for C=CCOc1nc(N)nc2nc[nH]c12 [NU2028, 2-amino-6-allyloxypurine] .
Response given: < 4.00

Challenge: Same lookup for Nc1nc(OCC2COc3ccccc3O2)c2nc[nH]c2n1 (stereo not drawn) [NU6026] , please.
Response given: < 4.00

Challenge: Same lookup for Nc1nc(OC[C@H]2CCC(=O)N2)c2nc[nH]c2n1 [NU6032] , please.
Response given: < 3.00

Challenge: Same lookup for Nc1nc(OCC2CCCC2)c2nc[nH]c2n1 [NU2068, O^6 -(Cyclopentyl)methylguanine] , please.
Response given: 4.47

Challenge: Same lookup for CO[C@@H]1O[C@H](COc2nc(N)nc3[nH]cnc23)[C@H]2OC(C)(C)O[C@@H]12 [NU6012, O^6 -Ribofuranosylguanine] , please.
Response given: < 4.00

Challenge: Same lookup for Nc1nc(OCc2cccc3ccccc23)c2nc[nH]c2n1 [NU6020, 2-amino-6-(1-naphthyl)-methyloxypurine] , please.
Response given: < 4.00

Challenge: Same lookup for Nc1nc(OC[C@@H]2CCC(=O)N2)c2nc[nH]c2n1 [NU6031] , please.
Response given: < 3.00

Challenge: Same lookup for CC(C)C(=O)COc1nc(N)nc2nc[nH]c12 [NU2056, O^6-(3-Methyl-2-oxobutyl)guanine] , please.
Response given: 3.91

Challenge: Same lookup for Nc1nc(OCC2CCCCO2)c2nc[nH]c2n1 (stereo not drawn) [NU6019] , please.
Response given: < 4.00

Challenge: Same lookup for CC1(C)O[C@H]2[C@@H](O1)[C@@H](COc1nc(N)nc3[nH]cnc13)O[C@@H]1OC(C)(C)O[C@@H]12 [NU6017] , please.
Response given: < 4.00

Challenge: Same lookup for Nc1nc(OCC2CCCO2)c2nc[nH]c2n1 (stereo not drawn) [NU6013] , please.
Response given: 3.58

Challenge: Same lookup for Nc1nc(OCc2ccccc2)c2[nH]cnc2n1 [NU2005, 2-amino-6-benzyloxypurine] , please.
Response given: 4.00

###

Test system: CDK1 (p34 cdc2)/cyclin B
Assay: CDK inhibition assay (histone H1 kinase), CDK1
Type: biochemical, starfish (Marthasterias glacialis)
Conditions: at 100 μM
Endpoint Label: % inhibition CDK1 (%)
Just the number please, in %, no unit attached.

Smiles Input: Nc1nc(OC[C@H]2CCC(=O)N2)c2nc[nH]c2n1
Endpoint Label: % inhibition CDK1
Measurement: 54

Challenge: Name the recorded % inhibition CDK1 for Nc1nc(N)c(N)c(OCC2CCCCC2)n1 .
Response given: 40

Challenge: Same lookup for Nc1nc(OCCC2CCCCC2)c2[nH]cnc2n1 , please.
Response given: 68

Challenge: Same lookup for Nc1nc(OCc2ccccc2)c2[nH]c(=O)[nH]c2n1 , please.
Response given: 13

Challenge: Same lookup for Nc1nc(OC[C@@H]2CCC(=O)N2)c2nc[nH]c2n1 , please.
Response given: 26

###

Molecular target: CDK4 (Homo sapiens, UniProt P11802)
Sequence (P11802 whole entry, species assumed): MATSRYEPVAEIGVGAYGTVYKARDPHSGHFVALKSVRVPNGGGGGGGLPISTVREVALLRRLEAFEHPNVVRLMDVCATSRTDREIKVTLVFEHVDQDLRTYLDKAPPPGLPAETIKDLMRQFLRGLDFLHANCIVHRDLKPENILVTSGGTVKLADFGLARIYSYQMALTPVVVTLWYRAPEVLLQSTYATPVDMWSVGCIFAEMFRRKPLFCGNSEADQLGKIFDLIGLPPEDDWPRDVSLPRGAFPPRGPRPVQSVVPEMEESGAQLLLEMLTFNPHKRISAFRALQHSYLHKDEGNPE
Sequence (P24385 whole entry partner, species assumed): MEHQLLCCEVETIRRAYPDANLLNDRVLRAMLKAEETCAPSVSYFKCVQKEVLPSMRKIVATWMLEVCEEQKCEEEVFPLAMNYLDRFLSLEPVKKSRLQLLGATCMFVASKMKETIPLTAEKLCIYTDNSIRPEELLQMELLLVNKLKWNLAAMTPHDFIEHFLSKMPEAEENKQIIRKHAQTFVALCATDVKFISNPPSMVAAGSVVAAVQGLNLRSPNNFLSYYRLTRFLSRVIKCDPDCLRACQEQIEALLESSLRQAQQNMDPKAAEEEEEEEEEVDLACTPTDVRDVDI
Assay: CDK inhibition assay, CDK4
Assay type: biochemical
Settings: IC50 CDK4, CDK4; Table 1
Endpoint Label: IC50 (µM)
Just the number please, in µM, no unit attached.

Challenge: // lookup IC50 | system=CDK4 (Homo sapiens, UniProt P11802) | key= Nc1nc(OCC2CCCCC2)c2nc[nH]c2n1
Response given: 38

###

System: CDK1 (p34 cdc2)/cyclin B
Test: CDK inhibition assay (histone H1 kinase), CDK1
Type: biochemical, starfish (Marthasterias glacialis)
Settings: at 100 μM
The following compounds are listed with their measured % inhibition CDK1 values.

Compound: Nc1cc(OCc2ccccc2)nc(N)n1
Endpoint Label: % inhibition CDK1
Measurement: 3 ± 3%

Compound: CC1(C)OC[C@H](COc2nc(N)nc3[nH]cnc23)O1
Endpoint Label: % inhibition CDK1
Measurement: 34 ± 2%

Compound: Nc1nc(OCc2cccnc2)c2nc[nH]c2n1
Endpoint Label: % inhibition CDK1
Measurement: 56 ± 4%

Compound: Nc1nc(OCC2CCCO2)c2nc[nH]c2n1 (centres unmarked)
Endpoint Label: % inhibition CDK1
Measurement: 48 ± 7%

Challenge: Name the recorded % inhibition CDK1 for CC1(C)O[C@H]2[C@@H](O1)[C@@H](COc1nc(N)nc3[nH]cnc13)O[C@@H]1OC(C)(C)O[C@@H]12 .
Response given: 10 ± 6%

###

The following compounds are listed with their measured log10(IC50) values.
Biological target: CDK1 (p34 cdc2)/cyclin B
Assay: CDK inhibition assay (histone H1 kinase), CDK1
Conditions: CDK1; Table 1
Units before log transform: µM; reported quantity: IC50; transform: log10.

Compound: Nc1nc(OCC2=CCCC2)c2nc[nH]c2n1
log10(IC50): 0.85
--
Compound: CC(C)C(=O)COc1nc(N)nc2nc[nH]c12
log10(IC50): 1.34
--
Compound: Nc1nc(OCc2ccco2)c2nc[nH]c2n1
log10(IC50): 1.88
--
Compound: C=CCOc1nc(N(C)C)nc2nc[nH]c12
log10(IC50): 1.34
--
Compound: CC/C=C/CCOc1nc(N)nc2[nH]cnc12 [NU2067, O^6-(trans-3'-Hexenyl)guanine]
log10(IC50): 1.58

Proceed to the following item.
Challenge: Name the recorded log10(IC50) for CC(=O)COc1nc(N)nc2[nH]cnc12 .
Response given: 2.00

###

Test system: CDK1 (p34 cdc2)/cyclin B
Experiment: CDK inhibition assay (histone H1 kinase), CDK1
Format: biochemical, starfish (Marthasterias glacialis)
Conditions: at 100 μM
The following compounds are listed with their measured % inhibition CDK1 values.
Just the number please, in %, no unit attached.

Compound: Nc1cc(OCC2CC=CCC2)nc(N)n1 (stereo not shown)
% inhibition CDK1 / %: 16

Challenge: Name the recorded % inhibition CDK1 for CO[C@@H]1O[C@H](COc2nc(N)nc3[nH]cnc23)[C@H]2OC(C)(C)O[C@@H]12 .
Response given: 32

Challenge: Same lookup for CC1(C)OC[C@@H](COc2nc(N)nc3[nH]cnc23)O1 , please.
Response given: 50

Challenge: Same lookup for Nc1nc(OCC2CCCCO2)c2nc[nH]c2n1 (stereo not shown) , please.
Response given: 51

Challenge: Same lookup for Nc1nc(OCC2COC3(CCCCC3)O2)c2nc[nH]c2n1 (stereo not shown) , please.
Response given: 26

Challenge: Same lookup for CC1(C)OCC(COc2nc(N)nc3[nH]cnc23)O1 (stereo not shown) , please.
Response given: 36

Challenge: Same lookup for Nc1nc(N)c(N=O)c(OCc2ccccc2)n1 , please.
Response given: 54

###

Tested on: CDK1 (p34 cdc2)/cyclin B
Test: CDK inhibition assay (histone H1 kinase), CDK1
Assay type: biochemical, starfish (Marthasterias glacialis)
Details: at 10 μM
Endpoint Label: % inhibition CDK1 (%)
Just the number please, in %, no unit attached.

Here's what some known entries look like.
Compound: Nc1nc(N)c(N=O)c(OCC2CC=CCC2)n1 (stereo not drawn)
Measured Target: CDK1 (p34 cdc2)/cyclin B
Measurement: 73
--
Compound: Nc1nc(OCc2ccc3ccccc3c2)c2nc[nH]c2n1
Measured Target: CDK1 (p34 cdc2)/cyclin B
Measurement: 12
--
Compound: CN(C)c1nc(OCC2CCCCC2)c2nc[nH]c2n1
Measured Target: CDK1 (p34 cdc2)/cyclin B
Measurement: 27

Challenge: Name the recorded % inhibition CDK1 for Nc1nc(OCc2cccc3ccccc23)c2nc[nH]c2n1 .
Response given: 10

Challenge: Same lookup for Clc1nc(OCC2CCCCC2)c2[nH]cnc2n1 , please.
Response given: 6

Challenge: Same lookup for Nc1nc(N)c(N=Nc2ccc(Cl)cc2)c(OCC2CCCCC2)n1 , please.
Response given: 3
